Measured IC50 of individual entries
# Tgt: Dual specificity mitogen-activated protein kinase kinase 4 (Homo sapiens)
# Sequence (P45985 whole entry): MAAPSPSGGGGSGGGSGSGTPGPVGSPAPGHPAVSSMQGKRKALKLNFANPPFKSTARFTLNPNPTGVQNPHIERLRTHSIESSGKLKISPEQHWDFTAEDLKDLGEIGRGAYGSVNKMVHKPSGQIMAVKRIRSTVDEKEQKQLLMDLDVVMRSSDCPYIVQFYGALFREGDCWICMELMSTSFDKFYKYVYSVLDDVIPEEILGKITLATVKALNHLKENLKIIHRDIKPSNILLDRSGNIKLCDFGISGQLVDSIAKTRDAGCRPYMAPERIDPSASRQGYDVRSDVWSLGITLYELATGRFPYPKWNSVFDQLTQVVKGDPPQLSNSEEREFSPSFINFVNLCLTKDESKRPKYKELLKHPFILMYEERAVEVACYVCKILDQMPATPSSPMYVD
# Experiment summary: Inhibition of MKK4 (unknown origin) by PanQinase assay
Quantity kind: IC50 (nM)

>>> reported_value("CCCS(=O)(=O)Nc1ccc(F)c(C(=O)c2n[nH]c3ncc(-c4ccc(S(N)(=O)=O)cc4)cc23)c1F")
89
>>> reported_value("CCCS(=O)(=O)Nc1ccc(F)c(C(=O)c2n[nH]c3ncc(-c4ccc(S(=O)(=O)NC(C)=O)cc4)cc23)c1F")
29

----------
Measured Activity of individual entries
# Tgt: Mitogen-activated protein kinase kinase kinase kinase 5 (Homo sapiens)
# Sequence (Q9Y4K4 whole entry, looked up, the tested form may be a part): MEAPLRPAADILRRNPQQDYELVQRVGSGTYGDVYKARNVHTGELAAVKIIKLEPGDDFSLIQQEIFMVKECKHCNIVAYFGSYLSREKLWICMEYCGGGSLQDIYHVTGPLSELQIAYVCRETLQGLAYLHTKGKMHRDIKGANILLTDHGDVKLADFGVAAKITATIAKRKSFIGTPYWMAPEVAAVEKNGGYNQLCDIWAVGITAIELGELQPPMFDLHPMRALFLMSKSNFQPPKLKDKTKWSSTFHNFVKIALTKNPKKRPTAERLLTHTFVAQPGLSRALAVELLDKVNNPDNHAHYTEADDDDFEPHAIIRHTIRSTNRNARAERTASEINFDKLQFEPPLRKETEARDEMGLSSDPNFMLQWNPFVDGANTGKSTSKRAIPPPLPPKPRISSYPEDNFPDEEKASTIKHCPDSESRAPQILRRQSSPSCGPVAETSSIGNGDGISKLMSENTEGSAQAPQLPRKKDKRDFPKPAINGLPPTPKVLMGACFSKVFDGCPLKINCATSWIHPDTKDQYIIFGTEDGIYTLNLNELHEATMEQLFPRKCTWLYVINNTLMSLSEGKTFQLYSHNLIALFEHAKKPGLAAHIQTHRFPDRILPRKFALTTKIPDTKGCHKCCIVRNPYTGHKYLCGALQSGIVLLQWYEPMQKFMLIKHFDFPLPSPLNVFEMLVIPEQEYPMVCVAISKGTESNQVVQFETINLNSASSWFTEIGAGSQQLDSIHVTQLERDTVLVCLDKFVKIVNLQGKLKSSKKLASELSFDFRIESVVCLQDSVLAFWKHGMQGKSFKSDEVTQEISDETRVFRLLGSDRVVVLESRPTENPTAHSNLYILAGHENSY
# Experiment summary: Binding affinity to wild-type human partial length MAP4K5 (M1 to P297 residues) expressed in bacterial expression system assessed as residual binding level at 100 nM by Kinomescan method relative to control
Quantity kind: Activity (%)

>>> reported_value("CCCS(=O)(=O)Nc1ccc(F)c(C(=O)c2n[nH]c3ncc(-c4cccc(Cl)c4)cc23)c1F")
69
>>> reported_value("CCCS(=O)(=O)Nc1ccc(F)c(C(=O)c2n[nH]c3ncc(-c4cccc(F)c4)cc23)c1F")
65
>>> reported_value("CCCS(=O)(=O)Nc1ccc(F)c(C(=O)c2n[nH]c3ncc(-c4cccc(C(F)(F)F)c4)cc23)c1F")
98

----------
# Tgt: Mitogen-activated protein kinase kinase kinase 20 (Homo sapiens)
# Sequence (Q9NYL2 2-800 limits assumed): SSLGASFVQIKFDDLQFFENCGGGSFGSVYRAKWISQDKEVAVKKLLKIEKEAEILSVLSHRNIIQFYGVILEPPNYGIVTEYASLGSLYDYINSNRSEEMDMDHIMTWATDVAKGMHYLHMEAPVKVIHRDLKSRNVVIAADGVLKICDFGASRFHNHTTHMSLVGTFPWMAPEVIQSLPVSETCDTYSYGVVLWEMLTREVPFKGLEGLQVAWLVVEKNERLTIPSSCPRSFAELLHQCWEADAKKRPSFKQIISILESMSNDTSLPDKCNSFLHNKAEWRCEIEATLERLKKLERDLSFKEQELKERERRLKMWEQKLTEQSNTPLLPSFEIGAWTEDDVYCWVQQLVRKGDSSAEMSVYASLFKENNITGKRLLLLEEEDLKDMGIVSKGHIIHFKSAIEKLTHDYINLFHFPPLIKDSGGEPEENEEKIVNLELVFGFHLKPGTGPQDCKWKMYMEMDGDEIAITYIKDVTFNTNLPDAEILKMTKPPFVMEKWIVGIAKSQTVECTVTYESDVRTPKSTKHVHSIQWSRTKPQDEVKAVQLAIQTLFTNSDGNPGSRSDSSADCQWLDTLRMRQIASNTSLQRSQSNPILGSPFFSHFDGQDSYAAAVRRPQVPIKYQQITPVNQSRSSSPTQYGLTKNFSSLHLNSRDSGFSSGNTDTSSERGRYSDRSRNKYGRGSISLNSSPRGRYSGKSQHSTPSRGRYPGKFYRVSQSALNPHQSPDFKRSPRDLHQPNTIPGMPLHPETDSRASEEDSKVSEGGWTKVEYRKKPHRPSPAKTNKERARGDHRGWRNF
# Experiment summary: Binding affinity to wild-type human partial length ZAK (M1 to L331 residues) expressed in bacterial expression system assessed as residual binding level at 100 nM by Kinomescan method relative to control
Entries get a class label from measured Activity. See ranges: range A (below 20%), range B (20% to below 70%), range C (70% or more)

>>> class_name("CCCS(=O)(=O)Nc1ccc(F)c(C(=O)c2n[nH]c3ncc(-c4ccc(C)c(C)c4)cc23)c1F")
"range B"
>>> class_name("CCCS(=O)(=O)Nc1ccc(F)c(C(=O)c2n[nH]c3ncc(-c4ccccc4O)cc23)c1F")
"range A"
>>> class_name("CS(=O)(=O)Nc1ccc(F)c(C(=O)c2n[nH]c3ncc(-c4ccc(S(N)(=O)=O)cc4)cc23)c1F")
"range C"
>>> class_name("CCCS(=O)(=O)Nc1ccc(F)c(C(=O)c2n[nH]c3ncc(-c4ccc(C(N)=O)cc4)cc23)c1F")
"range A"
>>> class_name("CCCS(=O)(=O)Nc1ccc(F)c(C(=O)c2n[nH]c3ncc(-c4cccc(Cl)c4)cc23)c1F")
"range A"
>>> class_name("CCCS(=O)(=O)Nc1ccc(F)c(C(=O)c2n[nH]c3ncc(-c4cccc(N(C)C)c4)cc23)c1F")
"range A"
>>> class_name("CCCS(=O)(=O)Nc1ccc(F)c(C(=O)c2n[nH]c3ncc(-c4cc(Cl)cc(Cl)c4)cc23)c1F")
"range B"
>>> class_name("CCCS(=O)(=O)Nc1ccc(F)c(C(=O)c2n[nH]c3ncc(-c4ccc(C(F)(F)F)cc4)cc23)c1F")
"range C"
>>> class_name("CCCS(=O)(=O)Nc1ccc(F)c(C(=O)c2n[nH]c3ncc(-c4ccccc4N)cc23)c1F")
"range B"
>>> class_name("CCCS(=O)(=O)Nc1ccc(F)c(C(=O)c2n[nH]c3ncc(-c4ccccc4OC)cc23)c1F")
"range B"
>>> class_name("CCCS(=O)(=O)Nc1ccc(F)c(C(=O)c2n[nH]c3ncc(-c4cccc(C(F)(F)F)c4)cc23)c1F")
"range B"
>>> class_name("CCCS(=O)(=O)Nc1ccc(F)c(C(=O)c2n[nH]c3ncc(-c4ccc(S(N)(=O)=O)cc4)cc23)c1F")
"range C"
>>> class_name("CCCS(=O)(=O)Nc1ccc(F)c(C(=O)c2n[nH]c3ncc(-c4ccc(S(N)(=O)=O)cc4F)cc23)c1F")
"range C"
>>> class_name("CCCS(=O)(=O)Nc1ccc(F)c(C(=O)c2n[nH]c3ncc(-c4ccc(N(C)C)cc4)cc23)c1F")
"range A"
